# System: Alopecurus myosuroides (ALOMY)
# assayOverview: Post-emergence biological efficacy, glasshouse pot test
# Format: in vivo
# details: 312 h, post-emergence, 1,000 g/ha, evaluated after 13 days (100=total damage; 0=no damage), read-out: Percentage damage caused to weed species, ALOMY
Cut-off 30% on pest or weed control at 1000 g/ha, inclusive. At or above means y; below means n.

These recorded examples may help you get a feel for the data.
# molecule, classAssignment
measured = [
    ("COC(=O)c1nc(C2CC2)nc(NC2(c3ccc(Cl)cc3)CC2)c1Cl", "n"),
    ("COC(=O)c1nc(C2CC2)nc(NC(C)C2CC2)c1Cl (stereo not shown)", "y"),
    ("COC(=O)c1nc(C2CC2)nc(NCc2ccc(F)cc2)c1Cl", "n"),
    ("COC(=O)c1nc(C2CC2)nc(NC2CC2)c1Cl", "y"),
    ("COC(=O)c1nc(C2CC2)nc(NCC2CC2)c1Cl", "y"),
    ("COC(=O)c1nc(C2CC2)nc(NCC(C)(F)c2cccc(Cl)c2)c1Cl (stereo not shown)", "n"),
    ("COC(=O)c1nc(C2CC2)nc(NC2CCCC2O)c1Cl (stereo not shown)", "n"),
    ("COC(=O)c1nc(C2CC2)nc(NC2(/C=C\\c3ccccc3)CC2)c1Cl [4-19 (Z)]", "n"),
    ("COC(=O)c1nc(C2CC2)nc(NCc2cccc(Br)c2)c1Cl", "n"),
    ("C=CCC(Nc1nc(C2CC2)nc(C(=O)OC)c1Cl)c1ccccn1 (stereo not shown)", "n"),
]

State whether the measured pest or weed control at 1000 g/ha reaches 30%, counting equality as reaching it, for COC(=O)c1nc(C2CC2)nc(NCc2ccccc2C(F)(F)F)c1Cl
n

Identify whether the reported pest or weed control at 1000 g/ha of the following molecule is 30% or greater: COC(=O)c1nc(C2CC2)nc(NC2(/C=C/c3c(F)cccc3F)CC2)c1Cl
n

Could you tell me if the measured pest or weed control at 1000 g/ha of COC(=O)c1nc(C2CC2)nc(NCc2ccc(C)o2)c1Cl reaches 30% or more?
y

Is reported pest or weed control at 1000 g/ha greater than or equal to 30% here: COC(=O)c1nc(C2CC2)nc(NCc2ccc(Cl)cc2Cl)c1Cl
n

Textbook exercise: given the entry COC(=O)c1nc(C2CC2)nc(NCCCN2CCCC2=O)c1Cl , state whether its pest or weed control at 1000 g/ha is greater than or equal to 30%.
n
